Target: T1, human recombinant nucleolin (human, UniProt P19338 1-710, limits assumed)
T1 construct: also called human nucleolin
T1 sequence (P19338 whole entry, form in doubt): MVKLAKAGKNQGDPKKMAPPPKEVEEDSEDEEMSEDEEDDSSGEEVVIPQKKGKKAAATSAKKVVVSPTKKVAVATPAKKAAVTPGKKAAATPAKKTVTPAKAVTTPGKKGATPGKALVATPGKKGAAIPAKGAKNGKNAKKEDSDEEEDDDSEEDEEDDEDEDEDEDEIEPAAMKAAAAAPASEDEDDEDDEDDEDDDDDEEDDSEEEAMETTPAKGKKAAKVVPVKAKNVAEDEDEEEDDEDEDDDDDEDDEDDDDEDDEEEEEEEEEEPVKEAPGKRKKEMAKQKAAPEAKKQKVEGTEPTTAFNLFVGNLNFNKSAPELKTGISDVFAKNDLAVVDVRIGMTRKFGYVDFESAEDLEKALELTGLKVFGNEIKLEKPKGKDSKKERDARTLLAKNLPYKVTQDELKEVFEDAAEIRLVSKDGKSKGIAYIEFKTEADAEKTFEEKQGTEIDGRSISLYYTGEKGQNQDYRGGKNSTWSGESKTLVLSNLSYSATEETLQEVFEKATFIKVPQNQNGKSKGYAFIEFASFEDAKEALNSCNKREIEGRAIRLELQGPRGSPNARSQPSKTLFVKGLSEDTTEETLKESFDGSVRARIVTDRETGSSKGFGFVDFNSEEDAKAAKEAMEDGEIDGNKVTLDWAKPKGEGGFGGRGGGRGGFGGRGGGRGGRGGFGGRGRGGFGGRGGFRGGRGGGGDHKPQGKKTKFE
Assay: ELISA, 100 ng human nucleolin coated, 100 pmol VHH, anti-HA-peroxidase detection
fold increased nucleolin binding relative to the parental VHH overview
Numbers only here, please. The scale is fold.

Guide cases for fold increased nucleolin binding relative to the parental VHH, answers given:
{"binder": "aNCL-CDR3-L VHH (VHH, The entry holds leader peptide, His tag and HA tag; also called CDR3-grafted VHH with SGGGS linkers) VHH: QVQLQESGGGLVQPGGSLRLSCAASGRTFSDHSGYTYTIGWFRQAPGKEREFVARIYWSSGNTYYADSVKGRFAISRDIAKNTVDLTMNNLEPEDTAVYYCAASGGGSPQRRSARLSASGGGSWGQGTQVTVSS", "recorded number": 3}
{"binder": "aNCL-CDR3 VHH (VHH, The entry holds leader peptide, His tag and HA tag; also called CDR3-grafted VHH; anti-nucleolin VHH) VHH: QVQLQESGGGLVQPGGSLRLSCAASGRTFSDHSGYTYTIGWFRQAPGKEREFVARIYWSSGNTYYADSVKGRFAISRDIAKNTVDLTMNNLEPEDTAVYYCAAPQRRSARLSAWGQGTQVTVSS", "recorded number": 3}
{"binder": "aNCL-CDR1 VHH (VHH, The entry is expected to hold leader peptide, His tag and HA tag like the others; also called aNCL-CDRl; a-NCL-CDRl VHH) VHH: QVQLQESGGGLVQPGGSLRLSCAASPQRRSARLSAWFRQAPGKEREFVARIYWSSGNTYYADSVKGRFAISRDIAKNTVDLTMNNLEPEDTAVYYCAARDGIPTSRSVESYNYWGQGTQVTVSS", "recorded number": 2}

input: Assign fold increased nucleolin binding relative to the parental VHH to the following record: aNCL-CDR1-L VHH (VHH, The entry holds leader peptide, His tag and HA tag; also called aNCL-CDRl-L; CDR1-grafted VHH with SGGGS linkers) VHH: QVQLQESGGGLVQPGGSLRLSCAASSGGGSPQRRSARLSASGGGSWFRQAPGKEREFVARIYWSSGNTYYADSVKGRFAISRDIAKNTVDLTMNNLEPEDTAVYYCAARDGIPTSRSVESYNYWGQGTQVTVSS
output: 2
